Recorded values, source ChEMBL document CHEMBL4052722.

Would you mind telling me the reported log Ka of each entry?
Species: Bos taurus
Assay: Displacement of ethidium bromide from calf thymus DNA by fluorescence binding assay
I only need the number, thanks.

[Q] Consider the compound `O=C(CN1CCCCC1)N/N=C1\C(=O)Nc2ccccc21` . State its measured log Ka.
[A] 5.64

[Q] Fill in reported log Ka for this entry: `O=C(CCCn1c2ccccc2c2nc3ccccc3nc21)OCCN1CCCCC1`
[A] 5.57

[Q] For the compound `CCN(CC)CC(=O)N/N=C1\C(=O)Nc2ccccc21` , give its measured log Ka value.
[A] 5.96

[Q] Note log Ka for the compound shown: `CN(C)CCCOC(=O)Cn1c2ccccc2c2nc3ccccc3nc21`
[A] 5.28

[Q] // Input: `CCN(CC)CCNC(=O)Cn1c2ccccc2c2nc3ccccc3nc21` . Output its log Ka only.
[A] 5.03

[Q] For the compound `CN(C)CCCCCCn1c2ccccc2c2nc3ccccc3nc21` , give its measured log Ka value.
[A] 5.81

###

Assay: Cytotoxicity against African green monkey CV1 cells assessed as cell viability at 0.1 to 100 uM preincubated for 4 hrs measured after 24 hrs by MTT assay relative to control
Format: cell-based, CV-1
Conditions: chlorocebus aethiops, read-out: Activity
Assay endpoint: viability at 24 h, up to 100 µM (%)
Write the number in % without appending the unit.

[Q] Give recorded viability at 24 h, up to 100 µM. `CN1CCN(CCN2C(=O)c3cccc4cccc(c34)C2=O)CC1`
[A] 65

[Q] Answer with reported viability at 24 h, up to 100 µM of `CN(C)CCCNC(=O)CCCn1c2ccccc2c2nc3ccccc3nc21`
[A] 96

[Q] Identify measured viability at 24 h, up to 100 µM corresponding to `O=C(CN1CCCC1)NN1C(=O)c2cccc3cccc(c23)C1=O`
[A] 99

[Q] Specify measured viability at 24 h, up to 100 µM for `CCN(CC)CCNC(=O)Cn1c2ccccc2c2nc3ccccc3nc21` .
[A] 100

[Q] Please give the documented viability at 24 h, up to 100 µM of `O=C(CCCn1c2ccccc2c2nc3ccccc3nc21)OCCN1CCOCC1`
[A] 102

###

Assign viability at 110 h, 50 µM to each entry below.
Experiment: Cytotoxicity against African green monkey CV1 cells assessed as viable cells at 50 uM after 110 hrs by real-time cell analysis relative to control
Type: cell-based, CV-1
Details: chlorocebus aethiops, read-out: Activity
API: value field is a number in %; no unit string.

[Q] Name the recorded viability at 110 h, 50 µM of the item `CCN(CC)CCCNCCn1c2ccccc2c2nc3ccccc3nc21` in your answer.
[A] 17.2

[Q] Complete the entry with viability at 110 h, 50 µM for `CN(C)CCCNC(=O)Cn1c2ccccc2c2nc3ccccc3nc21`
[A] 90

[Q] Consider the compound `COc1ccc2c(c1)c1nc3ccccc3nc1n2CCN1CCCCC1` . State its measured viability at 110 h, 50 µM.
[A] 75.6

###

Task for the reader: assign each of the following compounds its reported CC50 at 24 h.
Assay: Cytotoxicity against African green monkey CV1 cells assessed as reduction in cell viability preincubated for 4 hrs measured after 24 hrs by MTT assay relative to control
Type: cell-based, CV-1
Conditions: chlorocebus aethiops
Numeric answer only, unit µM assumed.

[Q] Give the reported value of CC50 at 24 h for this record: CCN(CC)CCCC(C)N1C(=O)c2cccc3cccc(c23)C1=O (centres undefined)
[A] 50

[Q] For the compound `CCN(CC)CCCNC(=O)Cn1c2ccccc2c2nc3ccccc3nc21` , report CC50 at 24 h.
[A] 100

[Q] Supply CC50 at 24 h value. Item: `CN(C)CCNC(=O)CCCn1c2ccccc2c2nc3ccccc3nc21`
[A] 100

[Q] Provide only the value of recorded CC50 at 24 h for `CCN(CCO)CCN1C(=O)c2cccc3cccc(c23)C1=O`
[A] 100

[Q] Please give measured CC50 at 24 h of the following entry: `CN(C)CCOC(=O)CCCn1c2ccccc2c2nc3ccccc3nc21`
[A] 100

[Q] Look up and report measured CC50 at 24 h for this entry: `O=C(CCCn1c2ccccc2c2nc3ccccc3nc21)NCCN1CCCCC1`
[A] 100

[Q] For `CN(C)CCn1c2ccccc2c2nc3ccccc3nc21` , write its CC50 at 24 h.
[A] 10

[Q] // Input: `Cc1ccc2c(c1)c1nc3ccccc3nc1n2CCN1CCN(C)CC1` . Output its CC50 at 24 h only.
[A] 100

[Q] Give the value of CC50 at 24 h reported for the following: `CCN(CC)CCn1c2ccc(OC)cc2c2nc3ccccc3nc21`
[A] 100

[Q] Answer with reported CC50 at 24 h of `CN1CCN(CCN2C(=O)c3cccc4cccc(c34)C2=O)CC1`
[A] 100

[Q] Return the recorded CC50 at 24 h value; entry: `CN(C)CCCOC(=O)Cn1c2ccccc2c2nc3ccccc3nc21`
[A] 100

[Q] Quote CC50 at 24 h reported for `CCN(CC)CCNC(=O)CCCn1c2ccccc2c2nc3ccccc3nc21` please.
[A] 100
